Entry source: the supplement of paper PMC10201428

- Test system: VchCAST RNA-guided transposition machinery (E. coli BL21(DE3) host, lacZ target)
- Run description: relative integration efficiency (T-LR orientation) vs wild-type transposon end (log2 (normalized fold change)); transposon end mutated: right end (5 bp flank + 75 bp right end); higher = more efficient transposition
Binary classification by relative integration efficiency (log2), with -0.5 as an inclusive lower bound for 1.0; all other cases are 0.0.

Sequence text	Discrete label
ACATTTGTTGATACAACCATAAAAGGATAATTACACCCATCAATTGATAATTATCCCACCCAATTTAACTATAACGCTCTGATCATAGTCAGACCAACATTGCTACGACCCGTATTCGCACCGACAC	1.0
ACATTTGTTGATACAACCATAAAATGATAATTACACCCATAAAGGTCTAATTATCACACCCATAAATTGATATTGCCTCTGATCATAGTCAGACCAACATTGCTACGACCCGTATTCGCACCGACAC	0.0
ACATTTGTTGATACAACCATAAAATGATAATTAACAACATAAATTGATAATTATCACACCCATAAATTGATATTGCCTCTGATCATAGTCAGACCAACATTGCTACGACCCGTATTCGCACCGACAC	0.0
ACATTTGTTGATACAACCATAAAATGATAATTACACCCATATTTTGATAATTATCACACCCATAAATTGATATTGCCTCTGATCATAGTCAGACCAACATTGCTACGACCCGTATTCGCACCGACAC	1.0
